These data points were gathered from patent US7462600B2.

- Test system: Streptococcus pneumoniae 1175
- Type: cell-based
- condition.notes: Streptococcus pneumoniae 1175; microtiter broth dilution
value.kind: MIC S. pneumo. 1175

molecule	reported.value
CCC1OC(=O)C(C)C(=O)C(C)C(OC2OC(C)CC(N(C)C)C2O)C(C)(OC)CC(C)C(=O)C(C)C2N(C3CN(S(=O)(=O)c4cccc(-c5cc[nH]n5)c4)C3)C(=O)OC12C (stereo not drawn)	<0.06 µg/mL
CCC1OC(=O)C(C)C(=O)C(C)C(OC2OC(C)CC(N(C)C)C2O)C(C)(OC)CC(C)C(=O)C(C)C2N(C3CN(S(=O)(=O)c4ccc(N5CCOC5=O)cc4)C3)C(=O)OC12C (stereo not drawn)	0.125 µg/mL

Let's switch to this molecule now.
The molecule identified as CCC1OC(=O)C(C)C(=O)C(C)C(OC2OC(C)CC(N(C)C)C2O)C(C)(OC)CC(C)C(=O)C(C)C2N(CC3CN(C(=O)c4cnc5ccccc5c4)C3)C(=O)OC12C.O=CO (stereo not drawn) registered its MIC S. pneumo. 1175 at <0.06 µg/mL

---

Overview of reported MIC S. pneumo. 1095 across a group of compounds:
- System: Streptococcus pneumoniae 1095
- Type: cell-based
- condition.notes: S. pneumoniae 1095 (ermB); microtiter broth dilution
Write down the numeric answer in µg/mL and omit the unit.

Reference set, count: 3
compound	assayed.system	MIC S. pneumo. 1095, µg/mL
CCC1OC(=O)C(C)C(=O)C(C)C(OC2OC(C)CC(N(C)C)C2O)C(C)(OC)CC(C)C(=O)C(C)C2N(CC3CCN(Cc4c[nH]c5cnccc45)C3)C(=O)OC12C (centres unmarked) [13.03]	Streptococcus pneumoniae 1095	1
CCC1OC(=O)C(C)C(=O)C(C)C(OC2OC(C)CC(N(C)C)C2O)C(C)(OC)CC(C)C(=O)C(C)C2N(CC3CCCN3C(=O)c3cccn(Cc4ccccc4)c3=O)C(=O)OC12C (centres unmarked) [10.36]	Streptococcus pneumoniae 1095	4
CCC1OC(=O)C(C)C(=O)C(C)C(OC2OC(C)CC(N(C)C)C2O)C(C)(OC)CC(C)C(=O)C(C)C2N(CC3C4CN(C(=O)c5cccc(C#N)c5)CC43)C(=O)OC12C (centres unmarked) [16.05]	Streptococcus pneumoniae 1095	1.56

The compound identified as CC[C@H]1OC(=O)[C@H](C)C(=O)[C@H](C)[C@@H](O[C@@H]2O[C@H](C)C[C@H](N(C)C)[C@H]2O)[C@](C)(OC)C[C@@H](C)C(=O)[C@H](C)[C@H]2N(CC3(C)CN(C(=O)c4ccc5ncsc5c4)C3)C(=O)O[C@]12C.O=CO [6.19] registered its MIC S. pneumo. 1095 at 1

The compound identified as CCC1OC(=O)C(C)C(=O)C(C)C(OC2OC(C)CC(N(C)C)C2O)C(C)(OC)CC(C)C(=O)C(C)C2N(CC3CCN(Cc4cnn(-c5ccccn5)c4)C3)C(=O)OC12C (centres unmarked) [11.14] registered its MIC S. pneumo. 1095 at 0.25

The compound identified as CCC1OC(=O)C(C)C(=O)C(C)C(OC2OC(C)CC(N(C)C)C2O)C(C)(OC)CC(C)C(=O)C(C)C2N(CC3C4CN(C(=O)OC(C)(C)C)CC43)C(=O)OC12C (centres unmarked) [16.01] registered its MIC S. pneumo. 1095 at 50

The compound identified as CCC1OC(=O)C(C)C(=O)C(C)C(OC2OC(C)CC(N(C)C)C2O)C(C)(OC)CC(C)C(=O)C(C)C2N(CC3CCN(C(=O)c4cccc5cccnc45)C3)C(=O)OC12C (centres unmarked) [13.11] registered its MIC S. pneumo. 1095 at 16

The compound identified as CC[C@H]1OC(=O)[C@H](C)C(=O)[C@H](C)[C@@H](O[C@@H]2O[C@H](C)C[C@H](N(C)C)[C@H]2O)[C@](C)(OC)C[C@@H](C)C(=O)[C@H](C)[C@H]2N(CC3(O)CN(C(=O)c4cccc5ccncc45)C3)C(=O)O[C@]12C [7.24] registered its MIC S. pneumo. 1095 at 2

The compound identified as CCC1OC(=O)C(C)C(=O)C(C)C(OC2OC(C)CC(N(C)C)C2O)C(C)(OC)CC(C)C(=O)C(C)C2N(CC3(O)CCN(Cc4c[nH]c5ncccc45)CC3)C(=O)OC12C (centres unmarked) [Example 14.01, (1H-pyrrolo[2,3-b]pyridin-3-yl)methyl] registered its MIC S. pneumo. 1095 at 32
